- EXPERIMENTAL_DETAILS: Pharmacokinetics of intraperitoneal or intravenous injection in CD1 mice (plasma, LC/MS/MS)
- Format: in vivo
- TEST_PARAMETERS: male, CD1, mouse, plasma, ip, 10 mg/kg, IP 10 mg/kg, 2 h, read-out: Conc. Mouse 1
ENDPOINT_NAME: concentration at 2 h (ng/mL)

smiles_text=COc1cc2c(Oc3ccc(NC(=O)C4(C(=O)Nc5ccc(F)cc5)CC4)cc3F)ccnc2cc1OCCCOCCCOCCC(=O)N[C@H](C(=O)N1C[C@H](O)C[C@H]1C(=O)NCc1ccc(-c2scnc2C)cc1)C(C)(C)C endpoint_name="concentration at 2 h" meas_value=5740

* * *

- TARGET: p38δ (Homo sapiens)
- Construct: endogenous in cells; host or cells: MDA-MB-231 (intact cells for degradation; cleared cell lysate for CETSA)
- Sequence (O15264 whole entry): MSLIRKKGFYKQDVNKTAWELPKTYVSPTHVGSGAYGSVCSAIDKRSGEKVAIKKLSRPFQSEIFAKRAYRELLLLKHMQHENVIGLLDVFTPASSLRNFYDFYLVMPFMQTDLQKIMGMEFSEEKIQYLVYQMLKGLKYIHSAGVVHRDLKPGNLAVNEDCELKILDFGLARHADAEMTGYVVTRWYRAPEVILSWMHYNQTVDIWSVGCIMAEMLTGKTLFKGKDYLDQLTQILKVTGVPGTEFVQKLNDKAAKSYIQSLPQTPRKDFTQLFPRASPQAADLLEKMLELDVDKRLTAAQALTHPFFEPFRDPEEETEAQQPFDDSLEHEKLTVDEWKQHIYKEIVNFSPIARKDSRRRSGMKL
- EXPERIMENTAL_DETAILS: Cellular assay of target protein degradation (MDA-MB-231 cells, ELISA)
- Type: cell-based
- TEST_PARAMETERS: read-out: p38δDC50/nM [MDA-MB-231]
- Protocol: Protocol of the cellular assay of target protein degradation (MDA-MB-231 cells, ELISA). For detection Cell Signaling PathScan Sandwich ELISA Catalog#12850 was used. MDA-MB-231 cells and […] were cultured in ATCC DMEM+ATCC FBS and plated 40,000/well 100 μl/well in RPMI P/S with 5% CSS Omega (bovine) serum into a 96 well plate. […] When TMB turned light blue, 100 μl of Stop solution was added, and the mixture was shaken and read at 450 nm. Also read at 562 nm for background subtraction.
ENDPOINT_NAME: DC50 (nM)

smiles_text=COc1cc2c(Oc3ccc(NC(=O)C4(C(=O)Nc5ccc(F)cc5)CC4)cc3F)ccnc2cc1OCCCOCCOCCC(=O)N[C@H](C(=O)N1C[C@H](O)C[C@H]1C(=O)NCc1ccc(-c2scnc2C)cc1)C(C)(C)C sign== meas_value=91.7
smiles_text=COc1cc2c(Oc3ccc(NC(=O)C4(C(=O)Nc5ccc(F)cc5)CC4)cc3F)ccnc2cc1OCCCCOCCCCOCC(=O)N[C@H](C(=O)N1C[C@H](O)C[C@H]1C(=O)NCc1ccc(-c2scnc2C)cc1)C(C)(C)C sign=> meas_value=5000
smiles_text=COc1cc2c(Oc3ccc(NC(=O)C4(C(=O)Nc5ccc(F)cc5)CC4)cc3F)ccnc2cc1OCCCOCCCOCCCOc1cc(-c2scnc2C)ccc1CNC(=O)[C@@H]1C[C@@H](O)CN1C(=O)[C@H](C(C)C)N1Cc2ccccc2C1=O sign=> meas_value=5000
smiles_text=COc1cc2c(Oc3ccc(NC(=O)C4(C(=O)Nc5ccc(F)cc5)CC4)cc3F)ccnc2cc1OCCCCOCCCCOc1cc(-c2scnc2C)ccc1CNC(=O)[C@@H]1C[C@@H](O)CN1C(=O)[C@H](C(C)C)N1Cc2ccccc2C1=O sign=> meas_value=5000
smiles_text=COc1cc2c(Oc3ccc(NC(=O)C4(C(=O)Nc5ccc(F)cc5)CC4)cc3F)ccnc2cc1OCCOCCOCCC(=O)N[C@H](C(=O)N1C[C@H](O)C[C@H]1C(=O)NCc1ccc(-c2scnc2C)cc1)C(C)(C)C sign== meas_value=51.4
smiles_text=COc1cc2c(Oc3ccc(NC(=O)C4(C(=O)Nc5ccc(F)cc5)CC4)cc3F)ccnc2cc1OCCOCCOCCOc1cc(-c2scnc2C)ccc1CNC(=O)[C@@H]1C[C@@H](O)CN1C(=O)[C@H](C(C)C)N1Cc2ccccc2C1=O sign== meas_value=84.9
